Where do the numbers come from? From patent US4882328A.

Where a name gives a salt, the structure may show the parent alone.
Observed MIC, system E. coli.
Measure Name: MIC

CC1Sc2c(C(=O)O)c(=O)c3cc(F)c(N4CCNCC4)nc3n21 (stereo not drawn) [Example 12, Hydrochloride]; 0.0125 µg/mL
CC1Sc2c(C(=O)O)c(=O)c3cc(Cl)c(N4CCNCC4)nc3n21 (stereo not drawn) [Example 21, Hydrochloride]; 0.025 µg/mL
CC1Sc2c(C(=O)O)c(=O)c3cc(F)c(N4CCOCC4)nc3n21 (stereo not drawn); 0.05 µg/mL
O=C(O)c1c2n(c3nc(N4CCNCC4)c(F)cc3c1=O)C(c1ccccc1)S2 (stereo not drawn) [Example 34, hydrochloride]; 0.1 µg/mL
O=C(O)c1c2n(c3nc(N4CCNCC4)c(F)cc3c1=O)C(c1ccc(F)cc1)S2 (stereo not drawn); 0.1 µg/mL
O=C(O)c1c2n(c3nc(N4CCNCC4)c(Cl)cc3c1=O)CS2 [Example 20, Hydrochloride]; 0.05 µg/mL
CC1Sc2c(C(=O)O)c(=O)c3cc(Cl)c(N4CCN(C)CC4)nc3n21 (stereo not drawn); 0.025 µg/mL
CCn1cc(C(=O)O)c(=O)c2cc(F)c(N3CCNCC3)nc21 [Enoxacin, enoxacin, reference compound]; 0.2 µg/mL
CN1CCN(c2nc3c(cc2F)c(=O)c(C(=O)O)c2n3CS2)CC1 [Example 3, Hydrochloride]; 0.025 µg/mL
O=C(O)c1c2n(c3nc(N4CCNCC4)c(F)cc3c1=O)CS2 [Example 2, Hydrochloride]; 0.05 µg/mL
CC1Sc2c(C(=O)O)c(=O)c3cnc(N4CCN(C)CC4)nc3n21 (stereo not drawn); 0.1 µg/mL
CC1Sc2c(C(=O)O)c(=O)c3cc(F)c(N4CCN(C)CC4)nc3n21 (stereo not drawn); 0.0125 µg/mL
